Below, each of the compounds is paired with its reported inhibition value.
Molecular target: Tyrosine-protein kinase Tec (Homo sapiens) (UniProt P42680)
Sequence (P42680 whole entry): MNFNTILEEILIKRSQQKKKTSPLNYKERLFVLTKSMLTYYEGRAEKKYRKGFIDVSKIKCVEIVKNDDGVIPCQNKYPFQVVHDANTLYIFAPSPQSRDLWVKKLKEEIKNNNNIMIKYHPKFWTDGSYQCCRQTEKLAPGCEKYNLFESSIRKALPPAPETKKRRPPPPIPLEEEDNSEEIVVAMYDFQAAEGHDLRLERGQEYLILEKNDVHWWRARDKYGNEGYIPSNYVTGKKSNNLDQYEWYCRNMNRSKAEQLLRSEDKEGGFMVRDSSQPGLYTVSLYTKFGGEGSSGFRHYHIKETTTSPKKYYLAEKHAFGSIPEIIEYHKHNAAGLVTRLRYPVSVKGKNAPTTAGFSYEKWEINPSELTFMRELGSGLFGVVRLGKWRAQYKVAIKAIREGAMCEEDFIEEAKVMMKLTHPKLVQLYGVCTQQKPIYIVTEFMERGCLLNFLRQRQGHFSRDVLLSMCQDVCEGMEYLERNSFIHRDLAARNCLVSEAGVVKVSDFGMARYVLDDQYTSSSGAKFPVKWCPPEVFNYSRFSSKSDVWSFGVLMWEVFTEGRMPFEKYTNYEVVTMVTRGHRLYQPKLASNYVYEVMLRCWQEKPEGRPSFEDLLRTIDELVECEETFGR
Settings: at 0.1 µM
Description: GSK_PKIS: TEC mean inhibition at 0.1 uM [Nanosyn]

Use these answered entries as a reference point.
COc1cc(N2CCN(C(C)C)CC2)ccc1Nc1nc(Nc2ccc(F)cc2C(N)=O)c2cc[nH]c2n1 : 6.32%
CCN1CCC(CC(=O)Nc2n[nH]c3nnc(-c4cccc(F)c4F)cc23)CC1 : 0.83%
CCn1c(-c2nonc2N)nc2c(C#CC(C)(C)O)nc(OC[C@H](N)c3ccccc3)cc21 : 6.27%
N#Cc1c(NC(=O)c2ccc(F)cc2)sc2c1CCCC2 : 1.75%
Fc1ccc(-c2cc(-c3c[nH]nc3-c3ccccn3)ccn2)cc1 : 3.71%
c1ccc(-c2nc3n(c2-c2ccc4c(c2)OCO4)CCC3)nc1 : 1.69%
COc1cc2ncn(-c3cc(OCc4ccccc4C(F)(F)F)c(C(=O)N(C)C)s3)c2cc1OC : 0.84%
CCn1c(-c2nonc2N)nc2ccccc21 : 3.65%

Request: I would be grateful if you could share the reported inhibition for [O-][S+]1CCN(Cc2ccc(-c3ccc4ncnc(Nc5ccc(OCc6cccc(F)c6)c(Cl)c5)c4c3)o2)CC1 .
Response: 2.12%

Request: I would be grateful if you could share the reported inhibition for Cc1cccc(Nc2ncc(-c3ccccc3)o2)c1 .
Response: 6.33%

Request: I would be grateful if you could share the reported inhibition for Fc1ccc(-c2nn3ccccc3c2-c2ccncc2)cc1 .
Response: 1.22%

###

Below, each of the compounds is paired with its reported inhibition value.
Molecular target: Ephrin type-B receptor 3 (Homo sapiens) (UniProt P54753);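 also: values are mean percent inhibition of EPHB3 from the GSK PKIS screening panel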
Sequence (whole entry): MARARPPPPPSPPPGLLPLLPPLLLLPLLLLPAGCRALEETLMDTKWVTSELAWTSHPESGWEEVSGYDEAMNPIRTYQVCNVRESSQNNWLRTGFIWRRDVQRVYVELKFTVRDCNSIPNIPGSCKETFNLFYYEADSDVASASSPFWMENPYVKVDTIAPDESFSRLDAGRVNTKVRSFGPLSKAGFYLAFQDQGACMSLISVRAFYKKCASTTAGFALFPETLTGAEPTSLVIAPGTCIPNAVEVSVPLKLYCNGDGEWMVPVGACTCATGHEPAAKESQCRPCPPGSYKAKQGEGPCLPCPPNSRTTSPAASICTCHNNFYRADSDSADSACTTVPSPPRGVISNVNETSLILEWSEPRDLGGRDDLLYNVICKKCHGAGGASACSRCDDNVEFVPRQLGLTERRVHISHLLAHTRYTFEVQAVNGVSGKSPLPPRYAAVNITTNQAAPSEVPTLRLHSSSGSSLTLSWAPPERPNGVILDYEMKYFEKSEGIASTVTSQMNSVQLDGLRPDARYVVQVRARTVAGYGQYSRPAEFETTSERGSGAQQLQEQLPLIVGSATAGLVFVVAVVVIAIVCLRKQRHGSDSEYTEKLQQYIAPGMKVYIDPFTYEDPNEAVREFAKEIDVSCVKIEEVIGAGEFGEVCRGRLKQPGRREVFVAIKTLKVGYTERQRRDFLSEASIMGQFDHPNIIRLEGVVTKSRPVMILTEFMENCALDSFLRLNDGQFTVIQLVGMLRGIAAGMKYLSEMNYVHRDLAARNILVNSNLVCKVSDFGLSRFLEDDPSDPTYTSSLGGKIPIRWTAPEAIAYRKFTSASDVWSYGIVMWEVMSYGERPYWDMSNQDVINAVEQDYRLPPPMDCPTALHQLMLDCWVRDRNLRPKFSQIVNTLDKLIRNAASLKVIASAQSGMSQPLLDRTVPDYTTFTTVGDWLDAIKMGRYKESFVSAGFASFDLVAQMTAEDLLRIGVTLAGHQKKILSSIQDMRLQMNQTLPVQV
Settings: at 1 µM
// return numeric value only (unit: %, not printed)

Use these answered entries as a reference point.
CCNC(=O)O[C@H]1CN[C@H](C#Cc2cc3ncnc(Nc4ccc(OCc5cccc(F)c5)c(Cl)c4)c3s2)C1 : 5.16
COc1cc2ncn(-c3cc(OCc4ccccc4C(F)(F)F)c(C(=O)N(C)C)s3)c2cc1OC : 0.33
COc1ccc(-c2cc3c(N)ncnc3o2)cc1 : 0.05
Cc1cccc2c1NC(=O)/C2=N\Nc1ccc(S(N)(=O)=O)cc1 : 2.12
COc1cc2c(cc1Nc1nc(Nc3ccsc3C(N)=O)c3cc[nH]c3n1)N(C(=O)CN(C)C)CCC2(C)C : -7.19

Request: Recall the recorded inhibition for COc1cc(Nc2nccc(Nc3ccc4c(C)n[nH]c4c3)n2)cc(OC)c1OC with Ephrin type-B receptor 3 (Homo sapiens) (UniProt P54753) and state it.
Response: 0.24

Request: Recall the recorded inhibition for Fc1ccc(-c2cc(-c3c[nH]nc3-c3ccccn3)ccn2)cc1 with Ephrin type-B receptor 3 (Homo sapiens) (UniProt P54753) and state it.
Response: 4.44

Request: Recall the recorded inhibition for CCOc1ccc2c(-c3ccnc(Nc4cccc(C(F)(F)F)c4)n3)cnn2n1 with Ephrin type-B receptor 3 (Homo sapiens) (UniProt P54753) and state it.
Response: 2.33

Request: Recall the recorded inhibition for N#Cc1c(NC(=O)c2ccc(F)cc2)sc2c1CCCC2 with Ephrin type-B receptor 3 (Homo sapiens) (UniProt P54753) and state it.
Response: 3.74

Request: Recall the recorded inhibition for Fc1ccc(-c2nn3ccccc3c2-c2ccncc2)cc1 with Ephrin type-B receptor 3 (Homo sapiens) (UniProt P54753) and state it.
Response: 8.05

Request: Recall the recorded inhibition for O=C(Nc1n[nH]c2cc(-c3ccc(F)cc3)ccc12)C1CC1 with Ephrin type-B receptor 3 (Homo sapiens) (UniProt P54753) and state it.
Response: 1.87

Request: Recall the recorded inhibition for COc1ccc(-c2nn3ncccc3c2-c2ccnc(Nc3ccc4c(c3)OCCO4)n2)cc1 with Ephrin type-B receptor 3 (Homo sapiens) (UniProt P54753) and state it.
Response: 6.41
